tgt: Long-chain-fatty-acid--AMP ligase FadD28 (Mycobacterium tuberculosis, UniProt P9WQ59)
assay_method_text: Inhibition of Mycobacterium tuberculosis H37Rv FAAL28 Spectra expressed in Escherichia coli BL21(DE3) cells assessed as cleavage of MEsG by spectroscopic analysis
condition_parameters: read-out: Ki(app)
pKi: −log10 of the molar value.
Condition met means recorded pKi is 5 or above; Condition not met means it is below 5.

Entry CCCCCC(=O)NS(=O)(=O)OC[C@H]1O[C@@H](n2cnc3c(N)ncnc32)[C@H](O)[C@@H]1O : is its pKi no less than 5? Condition not met

Same again, this time with C=CCCCCCCCCC(=O)NS(=O)(=O)OC[C@H]1O[C@@H](n2cnc3c(N)ncnc32)[C@H](O)[C@@H]1O Condition not met

Same again, this time with Nc1ncnc2c1ncn2[C@@H]1O[C@H](COS(=O)(=O)NC(=O)CCCCCCCCCCOc2ccccc2Cl)[C@@H](O)[C@H]1O Condition met

Same again, this time with COc1ccccc1OCCCCCCCCCCC(=O)NS(=O)(=O)OC[C@H]1O[C@@H](n2cnc3c(N)ncnc32)[C@H](O)[C@@H]1O Condition not met

Same again, this time with [N-]=[N+]=NCCCCCCCCCCCC(=O)NS(=O)(=O)OC[C@H]1O[C@@H](n2cnc3c(N)ncnc32)[C@H](O)[C@@H]1O Condition not met

Same again, this time with Nc1ncnc2c1ncn2[C@@H]1O[C@H](COS(=O)(=O)NC(=O)CCCCCCCCCCOc2ccccc2C(F)(F)F)[C@@H](O)[C@H]1O Condition met

***
Entry Nc1ncnc2c1ncn2[C@@H]1O[C@H](COS(=O)(=O)NC(=O)CCCCCCCCCCOc2ccc3ccccc3c2)[C@@H](O)[C@H]1O : is its pKi no less than 5? Condition met

Same again, this time with Nc1ncnc2c1ncn2[C@@H]1O[C@H](COS(=O)(=O)NC(=O)CCCCCCCCCCOc2cccc(C(F)(F)F)c2)[C@@H](O)[C@H]1O Condition met

* * *

Quick reference: Ki of the listed items.
tgt: Medium/long-chain-fatty-acid--CoA/3-oxocholest-4-en-26-oate--CoA ligase (Mycobacterium tuberculosis)
assay_method_text: Inhibition of Mycobacterium tuberculosis H37Rv FACL19 Spectra expressed in Escherichia coli BL21(DE3) cells assessed as cleavage of MEsG by spectroscopic analysis
condition_parameters: read-out: Ki(app)
I only need the number, in µM, no unit after it.

Here are 5 compounds together with their reported answers.
Report Ki for Nc1ncnc2c1ncn2[C@@H]1O[C@H](COS(=O)(=O)NC(=O)CCCCCCCCCCOc2ccc(Br)cc2)[C@@H](O)[C@H]1O please. 10.4

Same again, this time with Nc1ncnc2c1ncn2[C@@H]1O[C@H](COS(=O)(=O)NC(=O)CCCCCCCCCCOc2ccc3ccccc3c2)[C@@H](O)[C@H]1O 20.4

Same again, this time with Nc1ncnc2c1ncn2[C@@H]1O[C@H](COS(=O)(=O)NC(=O)CCCCCCCCCCNc2ccccc2)[C@@H](O)[C@H]1O 63.4

Same again, this time with Nc1ncnc2c1ncn2[C@@H]1O[C@H](COS(=O)(=O)NC(=O)CCCCCCCCCCOc2cccc(C(F)(F)F)c2)[C@@H](O)[C@H]1O 13.5

Same again, this time with Nc1ncnc2c1ncn2[C@@H]1O[C@H](COS(=O)(=O)NC(=O)CCCCCCCCCCSc2ccccc2)[C@@H](O)[C@H]1O 41.6

***
Report Ki for Nc1ncnc2c1ncn2[C@@H]1O[C@H](COS(=O)(=O)NC(=O)CCCCCCCCCCOc2cccc3ccccc23)[C@@H](O)[C@H]1O please. 9.64

* * *

tgt: Medium/long-chain-fatty-acid--CoA/3-oxocholest-4-en-26-oate--CoA ligase (Mycobacterium tuberculosis)
assay_method_text: Inhibition of Mycobacterium tuberculosis H37Rv His-tagged FACL19 expressed in Escherichia coli
condition_parameters: read-out: Ki(app)
measurement_name: pKi
Quick note: pKi means taking -log10 of the concentration in moles per liter.

Report pKi for CCCCCCCCCCCC(=O)NS(=O)(=O)OC[C@H]1O[C@@H](n2cnc3c(N)ncnc32)[C@H](O)[C@@H]1O please. 5.31

* * *

tgt: Medium/long-chain-fatty-acid--CoA/3-oxocholest-4-en-26-oate--CoA ligase (Mycobacterium tuberculosis, UniProt P9WQ51)
Sequence (P9WQ51 whole entry): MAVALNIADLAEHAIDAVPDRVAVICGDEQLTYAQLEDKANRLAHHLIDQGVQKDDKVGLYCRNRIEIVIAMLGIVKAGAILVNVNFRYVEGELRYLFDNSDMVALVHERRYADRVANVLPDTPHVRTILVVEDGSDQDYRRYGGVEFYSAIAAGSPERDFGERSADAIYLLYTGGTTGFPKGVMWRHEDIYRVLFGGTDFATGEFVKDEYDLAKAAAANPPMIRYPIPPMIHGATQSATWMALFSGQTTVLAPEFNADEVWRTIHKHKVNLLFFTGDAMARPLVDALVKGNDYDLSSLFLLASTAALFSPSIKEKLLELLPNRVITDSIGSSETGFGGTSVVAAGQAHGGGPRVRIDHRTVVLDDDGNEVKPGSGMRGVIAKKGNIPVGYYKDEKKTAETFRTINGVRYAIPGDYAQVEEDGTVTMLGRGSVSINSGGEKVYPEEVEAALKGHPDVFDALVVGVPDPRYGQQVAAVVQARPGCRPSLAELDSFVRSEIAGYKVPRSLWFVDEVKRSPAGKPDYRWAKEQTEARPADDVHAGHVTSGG
assay_method_text: Inhibition of Mycobacterium tuberculosis H37Rv FACL19 Spectra expressed in Escherichia coli BL21(DE3) cells assessed as cleavage of MEsG by spectroscopic analysis
condition_parameters: read-out: Ki(app)
measurement_name: pKi
Quick note: pKi means taking -log10 of the concentration in moles per liter.

Here are 2 molecules together with their reported answers.
Report pKi for Nc1ncnc2c1ncn2[C@@H]1O[C@H](COS(=O)(=O)NC(=O)CCCCCCCCCCOc2ccc(F)cc2)[C@@H](O)[C@H]1O please. 4.94

Same again, this time with Nc1ncnc2c1ncn2[C@@H]1O[C@H](COS(=O)(=O)NC(=O)CCCCCCCCCCOc2ccc(Cl)cc2)[C@@H](O)[C@H]1O 4.86

***
Report pKi for NCCCCCCCCCCCC(=O)NS(=O)(=O)OC[C@H]1O[C@@H](n2cnc3c(N)ncnc32)[C@H](O)[C@@H]1O please. 4.03

* * *

tgt: Long-chain-fatty-acid--AMP ligase FadD28 (Mycobacterium tuberculosis, UniProt P9WQ59)
Sequence (P9WQ59 whole entry): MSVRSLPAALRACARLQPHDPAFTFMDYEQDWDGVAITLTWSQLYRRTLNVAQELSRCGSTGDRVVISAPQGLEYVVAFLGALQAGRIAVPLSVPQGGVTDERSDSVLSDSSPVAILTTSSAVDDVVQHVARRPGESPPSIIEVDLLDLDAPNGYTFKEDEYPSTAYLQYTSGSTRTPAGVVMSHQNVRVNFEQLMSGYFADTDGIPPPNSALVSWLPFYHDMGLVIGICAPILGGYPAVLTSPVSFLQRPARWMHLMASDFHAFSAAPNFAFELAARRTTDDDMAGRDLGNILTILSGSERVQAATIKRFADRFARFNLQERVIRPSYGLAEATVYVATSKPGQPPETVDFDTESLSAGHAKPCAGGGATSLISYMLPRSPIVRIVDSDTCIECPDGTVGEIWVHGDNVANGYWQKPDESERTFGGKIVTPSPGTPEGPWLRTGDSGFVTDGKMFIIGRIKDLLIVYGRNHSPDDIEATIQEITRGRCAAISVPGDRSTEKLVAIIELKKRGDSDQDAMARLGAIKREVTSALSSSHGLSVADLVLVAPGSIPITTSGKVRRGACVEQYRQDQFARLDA
assay_method_text: Inhibition of Mycobacterium tuberculosis H37Rv FAAL28 Spectra expressed in Escherichia coli BL21(DE3) cells assessed as cleavage of MEsG by spectroscopic analysis
condition_parameters: read-out: Ki(app)
Quick reference: pKi of the listed items.
Quick note: pKi means taking -log10 of the concentration in moles per liter.

Report pKi for Nc1ncnc2c1ncn2[C@@H]1O[C@H](COS(=O)(=O)NC(=O)CCCCCCCCCCOc2ccccc2F)[C@@H](O)[C@H]1O please. 5.82

Same again, this time with CCCCCCCCCCCC(=O)NS(=O)(=O)OC[C@H]1O[C@@H](n2cnc3c(N)ncnc32)[C@H](O)[C@@H]1O 5.19

Same again, this time with CCCCCCCCCCCCCC(=O)NS(=O)(=O)OC[C@H]1O[C@@H](n2cnc3c(N)ncnc32)[C@H](O)[C@@H]1O 5.85

Same again, this time with CCCCCCCCC[C@@H]1C[C@@H]1C(=O)NS(=O)(=O)OC[C@H]1O[C@@H](n2cnc3c(N)ncnc32)[C@H](O)[C@@H]1O 4.16

Same again, this time with CCCCCCCCCCCCCCCCCC(=O)NS(=O)(=O)OC[C@H]1O[C@@H](n2cnc3c(N)ncnc32)[C@H](O)[C@@H]1O 6.30

Same again, this time with CCCCCCCCCC(=O)NS(=O)(=O)OC[C@H]1O[C@@H](n2cnc3c(N)ncnc32)[C@H](O)[C@@H]1O 4.06

Turning now to a further record.
Report pKi for Nc1ncnc2c1ncn2[C@@H]1O[C@H](COS(=O)(=O)NC(=O)CCCCCCCCCCOc2ccccc2)[C@@H](O)[C@H]1O please. 6.15

* * *

Tested on: Vero
assay_method_text: Cytotoxicity against African green monkey Vero cells assessed as reduction in cell viability after 72 hrs by MTT assay
Type: cell-based
condition_parameters: Chlorocebus sabaeus
measurement_name: log10 IC50 (log10 of the value in µM)
Field: value | Transform: log10 | Quantity: IC50 | Unit: µM

Report log10 IC50 for CCCCCCCCC[C@@H]1C[C@@H]1C(=O)NS(=O)(=O)OC[C@H]1O[C@@H](n2cnc3c(N)ncnc32)[C@H](O)[C@@H]1O please. 0.79

***
Report log10 IC50 for CCCCCCCC(=O)NS(=O)(=O)OC[C@H]1O[C@@H](n2cnc3c(N)ncnc32)[C@H](O)[C@@H]1O please. 0.78

Same again, this time with C=CCCCCCCCCC(=O)NS(=O)(=O)OC[C@H]1O[C@@H](n2cnc3c(N)ncnc32)[C@H](O)[C@@H]1O 1.06

Same again, this time with CCCCCCCCCCCC(=O)NS(=O)(=O)OC[C@H]1O[C@@H](n2cnc3c(N)ncnc32)[C@H](O)[C@@H]1O 1.46

Same again, this time with Nc1ncnc2c1ncn2[C@@H]1O[C@H](COS(=O)(=O)NC(=O)CCCCCCCCCCO)[C@@H](O)[C@H]1O 1.63

Same again, this time with CCCCCCCCCCCCCCCC(=O)NS(=O)(=O)OC[C@H]1O[C@@H](n2cnc3c(N)ncnc32)[C@H](O)[C@@H]1O -0.52
